assayed-target: TYK2 (Homo sapiens)
Construct: JAK1 (aa 850-1154) and TYK2 (aa 871-1187) are expressed with an N-terminally fused GST-tag; GST (N)
Sequence (P29597 871-1187): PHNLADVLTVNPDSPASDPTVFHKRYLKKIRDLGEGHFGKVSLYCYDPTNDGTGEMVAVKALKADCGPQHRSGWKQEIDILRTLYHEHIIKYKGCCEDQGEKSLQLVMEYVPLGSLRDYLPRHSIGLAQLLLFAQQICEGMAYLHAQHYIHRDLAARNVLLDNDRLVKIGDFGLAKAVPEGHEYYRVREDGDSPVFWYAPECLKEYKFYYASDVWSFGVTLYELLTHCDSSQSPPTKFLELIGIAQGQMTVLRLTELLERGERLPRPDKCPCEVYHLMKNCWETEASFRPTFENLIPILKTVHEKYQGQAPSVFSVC
assay-overview: JAK kinase assay (HTRF, phosphorylation of synthetic peptide), TYK2
experimental-setup: catalytic domain, ATP at Km (13 μM); read-out: TYK2 kinase inhibitory activity (EC50)
Consider the following molecules; for each one, report its EC50.

Would you mind giving EC50 for every molecule in the list below?
1. CCN(CC1CCC(F)(F)CC1)S(=O)(=O)N1CCN(c2ncnc3[nH]ccc23)CC12CC2 [Example 149]
2. O=S(=O)(N(CCc1ccccc1)CCc1cccc(F)c1)N1CCN(c2ncnc3[nH]ccc23)CC12CC2 [Example 48]
3. N#CC1CCCN(S(=O)(=O)N2CCN(c3ncnc4[nH]ccc34)CC23CC3)C1 (centres unmarked) [Example 42]
4. Cc1noc(C)c1CCN(C)S(=O)(=O)N1CCN(c2ncnc3[nH]ccc23)CC12CC2 [Example 32]

Reply text:
1: > 0.5 µM; 2: > 0.5 µM; 3: > 0.5 µM; 4: 0.1 to 0.5 µM
